Give measured 96 h LC50 (-log10 mol/L) for each item. Keep answers brief.
Tested on: Pimephales promelas
assay.remarks: 96 h LC50 (-log10 mol/L); higher = more toxic
Answers are plain numbers.

# count of solved cases: 5
[
  {
    "molecule": "C=CCOC(=O)C(=C)C",
    "test.system": "Pimephales promelas",
    "96 h LC50 (-log10 mol/L)": 5.11
  },
  {
    "molecule": "O=[N+]([O-])c1ccc(/C=C/c2cccc(CO)n2)o1",
    "test.system": "Pimephales promelas",
    "96 h LC50 (-log10 mol/L)": 5.48
  },
  {
    "molecule": "CC1(C)[C@H](C=C2CCCC2)[C@H]1C(=O)OCc1coc(Cc2ccccc2)c1",
    "test.system": "Pimephales promelas",
    "96 h LC50 (-log10 mol/L)": 8.57
  },
  {
    "molecule": "COc1ccc(C=O)c(OC)c1",
    "test.system": "Pimephales promelas",
    "96 h LC50 (-log10 mol/L)": 3.92
  },
  {
    "molecule": "C=C(C)C(=O)OCc1ccccc1",
    "test.system": "Pimephales promelas",
    "96 h LC50 (-log10 mol/L)": 4.58
  }
]

Provide reported 96 h LC50 (-log10 mol/L) for each item, in the same order as listed.
1. O=Cc1cc(Cl)ccc1O
2. ClC(Cl)(Cl)Cl
3. COc1ccc(OC)cc1
4. CN(C)C(=O)C(c1ccccc1)c1ccccc1

Solution:
5.31
3.57
3.07
3.7

Provide reported 96 h LC50 (-log10 mol/L) for each item, in the same order as listed.
1. Cc1c[nH]c2ccccc12
2. Clc1ccc(Cl)c(-c2ccccc2Cl)c1
3. COP(=S)(OC)Oc1ccc([N+](=O)[O-])c(C)c1

Solution:
[4.17, 6.88, 4.81]

Provide reported 96 h LC50 (-log10 mol/L) for each item, in the same order as listed.
1. COc1cccc(O)c1
2. COP(=O)(O)OC

Solution:
1. 3.22
2. 3.85
